experiment: chemical genetic growth profiling, strain panel (AID 1159580);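 note: tested at 20 µM; growth read once vehicle control cultures reached saturation at 30 °C; 1 = growth at the plate median or of vehicle wells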; details: S. cerevisiae deletion strains, growth OD, locus YIL073C, strain SPO22, stronger effect = lower value
In all, about 5,500 compounds went through this assay and about 2,000 (36%) were called active. Another 18% or so got no clear call; they are omitted. The list shows a part of the results.
normalized growth strictly less than 1 = t. Otherwise f.

>>> print(df.to_string())
                                   molecule  group_label
0  C=C1C(C)C2C(Cc3ccccc3)NC(=O)C23OC(=O)/C=C/C(O)CCCC(C)C/C=C/C3C1O (configuration not stated)            f
1  C=C1C(C)C2C(Cc3ccccc3)NC(=O)C23OC(=O)/C=C/C(=O)CCCC(C)C/C=C/C3C1O (configuration not stated)            t
2  CC1(C)OC(=O)C=CC2(C)C1CC(O)C1(C)C2CCC2(C)C(c3ccoc3)OC(=O)C3OC321 (configuration not stated)            f
3  CCCNC1CCc2nc(N)sc2C1 (configuration not stated)            f
4  COc1cc2c(cc1OC)C1Cc3ccc(OC)c(OC)c3CN1CC2 (configuration not stated)            f

Q: hey, is normalized growth for `COc1cc(-c2coc3cc(OCc4ccccc4)c(OC)c(O)c3c2=O)cc(OCc2ccccc2)c1OC` lower than 1 or not?
Result: t

Q: Please do the same for CCCC(=O)O[C@]1(C(=O)CO)CCC2[C@@H]3CCC4=CC(=O)CC[C@]4(C)C3[C@@H](O)C[C@@]21C (some centres not stated) as well.
Result: t

---

Let's look at some molecules and their measured normalized growth.
experiment: chemical genetic growth profiling, strain panel (AID 1159580); conditions: S. cerevisiae deletion strains, growth OD, locus YJR066W, strain TOR1, stronger effect = lower value
Hit rate of the full screen: of about 5,500 compounds, about 2,000 (36%) were called active. About 18% were inconclusive and are not listed. The list shows a part of the results.

Worked cases, normalized growth given:
In [3]: df
Out[3]:
                                   molecule            result
0  COC(=O)C[C@H]1C(C)(C)C(=O)[C@@H]2CC3=C(CC[C@]4(C)C3=CC(=O)O[C@H]4c3ccoc3)[C@@]1(C)C2=O  0.928 (inactive)
1             Nc1nc2ncc(=O)[nH]c2c(=O)[nH]1  0.945 (inactive)
2                 Nc1ccc(N=Nc2ccccc2)c(N)n1   0.91 (inactive)

Q: Quick one: normalized growth for `COc1ccc(CCN2CCC(Nc3nc4ccccc4n3Cc3ccc(F)cc3)CC2)cc1` ?
Result: 0.931 (inactive)

Q: Please do the same for Nc1ccn(C2O[C@H](CO)[C@@H](O)[C@@H]2O)c(=O)n1 (stereo not given in full) as well.
Result: 0.99 (inactive)

---

experiment: chemical genetic growth profiling, strain panel (AID 1159580); settings: S. cerevisiae deletion strains, growth OD, locus YER016W, strain bim1
Screen size: about 5,500 compounds; about 2,000 (36%) were called active. About 18% were inconclusive and are not listed. Cut-off read from the data, not from the text of the source: active = normalized growth mostly below about 0.91 (no sharp cut-off); inconclusive = no clear call, values can overlap the other calls; inactive = mostly above about 0.92. This is one part of the list.
Reply using exactly one outcome from active, inactive

Q: Record request — test call for `COc1ccc2c(c1)O[C@H]1c3ccc(OC)cc3OC[C@@H]21`
Result: inactive

Q: Please do the same for CCC(C)C(=O)O[C@H]1C[C@H](O)C=C2C=C[C@H](C)[C@H](CC[C@@H](O)C[C@@H](O)CC(=O)O)C21 (stereo not given in full) as well.
Result: inactive

Q: Please do the same for `COC(=O)C1=CCCN(C)C1` as well.
Result: inactive

Q: Please do the same for CCCC(=O)O[C@]1(C(=O)CO)CCC2[C@@H]3CCC4=CC(=O)CC[C@]4(C)C3[C@@H](O)C[C@@]21C (stereo not given in full) as well.
Result: inactive

Q: Please do the same for CC(=O)OC1CCC2(C)C(=CC=C3C2CCC2(C)C3CCC2C(C)/C=C/C(C)C(C)C)C1(C)C (stereo not given) as well.
Result: inactive

---

assay: chemical genetic growth profiling, strain panel (AID 1159580);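 note: tested at 20 µM; growth read once vehicle control cultures reached saturation at 30 °C; 1 = growth at the plate median or of vehicle wells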; conditions: S. cerevisiae deletion strains, growth OD, locus YDL035C, strain GPR1, stronger effect = lower value
Out of some 5,500 compounds screened, about 2,000 (36%) were called active. Another 18% or so got no clear call; they are omitted. This is one part of the list.
ENDPOINT_LABEL: normalized growth
Please give the numeric answer without any surrounding text.

Worked cases, normalized growth given:
                                   compound  recorded_number
0  C=C1C(C)C2C(Cc3ccccc3)NC(=O)C23OC(=O)/C=C/C(O)CCCC(C)C/C=C/C3C1O (stereo not given)             1.02
1                     CCCCCCOc1ccccc1C(N)=O            0.553
2              CCCCNc1ccc(C(=O)OCCN(C)C)cc1             1.01
3  NC[C@@H]1CC[C@@H](N)[C@@H](O[C@H]2[C@H](O)[C@@H](O[C@H]3O[C@H](CO)[C@@H](O)[C@H](N)[C@H]3O)[C@H](N)C[C@@H]2N)O1            0.995

For the next question, use this compound.
Q: Quick one: normalized growth for `O=C1OC(c2ccc(O)cc2)(c2ccc(O)cc2)c2ccccc21` ?
Result: 0.986

---

assay: chemical genetic growth profiling, strain panel (AID 1159580);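 note: tested at 20 µM; growth read once vehicle control cultures reached saturation at 30 °C; 1 = growth at the plate median or of vehicle wells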; settings: S. cerevisiae deletion strains, growth OD, locus YDL192W, strain arf1, stronger effect = lower value
Out of some 5,500 compounds screened, about 2,000 (36%) were called active. Not shown: some 18% with an inconclusive outcome. The list shows a part of the results.
ENDPOINT_LABEL: normalized growth
Please give the numeric answer without any surrounding text.

MOLECULE	normalized growth
C[C@@H]1C(=O)OC2[C@H](O)C34[C@@H]5OC(=O)[C@@]3(O[C@@H]3OC(=O)[C@H](O)[C@@]34[C@H](C(C)(C)C)[C@H]5O)[C@]21O (stereo partly drawn)	1.01
Clc1cccc(Cl)c1NC1=NCCN1	1.02

Q: Quick one: normalized growth for COC(=O)C(C)c1ccc(C(=O)c2cccs2)cc1 (stereo not drawn) ?
Result: 0.951

---

assay: chemical genetic growth profiling, strain panel (AID 1159580);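 note: tested at 20 µM; growth read once vehicle control cultures reached saturation at 30 °C; 1 = growth at the plate median or of vehicle wells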; conditions: S. cerevisiae deletion strains, growth OD, locus YJR066W, strain TOR1, stronger effect = lower value
The whole screen tested about 5,500 compounds, of which about 2,000 (36%) were called active. Inconclusive results (about 18%) are left out. Some of the results follow.
ENDPOINT_LABEL: normalized growth
Please give the numeric answer without any surrounding text.

Worked cases, normalized growth given:
>>> print(df.to_string())
                                smiles_code     endpoint_label  recorded_number
0   Cc1coc2c1C(=O)C(=O)c1c-2ccc2c1CCCC2(C)C  normalized growth            0.835
1           Cc1ccc(NNC(=O)c2c(C)noc2C)cc1Cl  normalized growth            0.983
2                     CCCCOC(=O)c1ccc(O)cc1  normalized growth            0.934
3  FC(F)(F)c1ccnc(N2CCCN(C(=S)Nc3ccc(Cl)cc3Cl)CC2)n1  normalized growth             1.03
4  OC(=Cc1nc2ccccc2nc1C=C(O)c1ccc(Cl)cc1)c1ccc(Cl)cc1  normalized growth            0.889

Q: Quick one: normalized growth for `COC(=O)C1=CCCN(C)C1` ?
Result: 0.968

Q: Please do the same for `CCCCN(C)C(=O)c1cc([N+](=O)[O-])cc2c1-c1ccc([N+](=O)[O-])cc1C2=C(C#N)C#N` as well.
Result: 0.973

Q: Please do the same for `CN1C(C(=O)Nc2ccccn2)=C(O)c2ccccc2S1(=O)=O` as well.
Result: 0.918

Q: Please do the same for `C[C@H]1COC2=C1C(=O)C(=O)c1c2ccc2c1CCCC2(C)C` as well.
Result: 0.701

Q: Please do the same for `CCCCC(=O)Oc1ccccc1C(=O)O` as well.
Result: 0.935

Q: Please do the same for `O=C(Nc1ccc(Cl)cc1)OCCSc1nc2ccccc2s1` as well.
Result: 0.833

Q: Please do the same for `O=C(O)CN1C(=O)c2cccc3cccc(c23)C1=O` as well.
Result: 0.975

Q: Please do the same for `CCc1oc2ccccc2c1C(=O)c1cc(Br)c(O)c(Br)c1` as well.
Result: 0.00147

Q: Please do the same for `Cn1c(=O)c2[nH]cnc2n(C)c1=O` as well.
Result: 0.959

Q: Please do the same for `CCOC(=O)c1ccc(O)cc1` as well.
Result: 0.958

Q: Please do the same for `Cc1onc(-c2c(F)cccc2Cl)c1C(=O)NNc1cc(Cl)cc(Cl)c1` as well.
Result: 0.984

Q: Please do the same for `CCCCNc1ccc(C(=O)OCCN(C)C)cc1` as well.
Result: 0.926

Q: Please do the same for `CCN(CC)CCOC(=O)c1ccc(N)cc1` as well.
Result: 0.999

Q: Please do the same for `CCCOc1ccc(C(=O)OCCN(CC)CC)cc1N` as well.
Result: 0.972

Q: Please do the same for `CC(=O)ON=C1c2cc([N+](=O)[O-])ccc2-c2ccc([N+](=O)[O-])cc21` as well.
Result: 0.76

Q: Please do the same for `O=C(/C=C/Sc1nc2ccccc2s1)c1ccc(Cl)cc1` as well.
Result: 0.893

Q: Please do the same for `O=C1NC(=O)C(=O)C(=O)N1` as well.
Result: 0.974

Q: Please do the same for `CCCCOC(=O)c1ccccc1C(=O)OCCCC` as well.
Result: 0.92

Q: Please do the same for `CCCCCCOc1ccccc1C(N)=O` as well.
Result: 0.815

Q: Please do the same for `CC(=O)OCC(COC(C)=O)OC(C)=O` as well.
Result: 0.936

Q: Please do the same for `CCN(CC)C(=O)c1cccc(C)c1` as well.
Result: 0.942

Data provenance is PubChem BioAssay AID1159580.
